- Tested on: Tankyrases
- stated_conditions: read-out: EC50 [M] TNKS cellular assay; DLD1 cells, 24 hours, Axin2 increase
Counter-ions that a name gives are not always drawn.

[
  {
    "compound": "COc1ccc(C(=O)C2CCN(C(=O)CCCc3nn4cc(F)cc4c(=O)[nH]3)CC2)cn1",
    "measured_on": "Tankyrases",
    "EC50 / M": "1.9e-08"
  },
  {
    "compound": "Cc1csc2c(=O)[nH]c(CCCC(=O)N3CCC(C(=O)c4ccc(C(C)(C)O)cc4)CC3)nc12",
    "measured_on": "Tankyrases",
    "EC50 / M": "6.4e-08"
  },
  {
    "compound": "CCc1cc(=O)[nH]c(CCCC(=O)N2CCC(C(=O)c3ccc(OC)nc3)CC2)n1",
    "measured_on": "Tankyrases",
    "EC50 / M": "7e-07"
  },
  {
    "compound": "COc1ccc(C(=O)C2CCN(C(=O)CCCc3nc(C(C)C)cc(=O)[nH]3)CC2)cc1 [Compound C254, trifluoroacetate]",
    "measured_on": "Tankyrases",
    "EC50 / M": "2.6e-07"
  },
  {
    "compound": "Cn1ccc2c(=O)[nH]c(CCCC(=O)N3CCC(c4cnc(N)c(C#N)c4)CC3)nc21",
    "measured_on": "Tankyrases",
    "EC50 / M": "2.4e-07"
  },
  {
    "compound": "N#Cc1cc(C2CCN(C(=O)CCCc3nn4cccc4c(=O)[nH]3)CC2)cnc1N",
    "measured_on": "Tankyrases",
    "EC50 / M": "5.2e-08"
  },
  {
    "compound": "COc1ccc(C(=O)C2CCN(C(=O)CCCc3nncc4ccccc34)CC2)cc1",
    "measured_on": "Tankyrases",
    "EC50 / M": "4.6e-08"
  },
  {
    "compound": "O=C(CCCc1nn2cc(F)cc2c(=O)[nH]1)N1CCC(c2nnc(-c3ccccc3)o2)CC1",
    "measured_on": "Tankyrases",
    "EC50 / M": "8.5e-08"
  },
  {
    "compound": "COc1ccc(C(=O)C2CCN(C(=O)CCCc3cn4nc(C)cc4c(=O)[nH]3)CC2)cc1",
    "measured_on": "Tankyrases",
    "EC50 / M": "4.9e-10"
  },
  {
    "compound": "Cc1cc2c(=O)[nH]c(CCCC(=O)N3CCC(C(=O)c4cnn(C(C)C)c4)CC3)cn2n1",
    "measured_on": "Tankyrases",
    "EC50 / M": "3e-08"
  }
]

###

- measured_on: PARP-1 (Homo sapiens, UniProt P09874)
- Construct: purchased Enzo Life Sciences GmbH, Lörrach, Germany
- Sequence (P09874 whole entry): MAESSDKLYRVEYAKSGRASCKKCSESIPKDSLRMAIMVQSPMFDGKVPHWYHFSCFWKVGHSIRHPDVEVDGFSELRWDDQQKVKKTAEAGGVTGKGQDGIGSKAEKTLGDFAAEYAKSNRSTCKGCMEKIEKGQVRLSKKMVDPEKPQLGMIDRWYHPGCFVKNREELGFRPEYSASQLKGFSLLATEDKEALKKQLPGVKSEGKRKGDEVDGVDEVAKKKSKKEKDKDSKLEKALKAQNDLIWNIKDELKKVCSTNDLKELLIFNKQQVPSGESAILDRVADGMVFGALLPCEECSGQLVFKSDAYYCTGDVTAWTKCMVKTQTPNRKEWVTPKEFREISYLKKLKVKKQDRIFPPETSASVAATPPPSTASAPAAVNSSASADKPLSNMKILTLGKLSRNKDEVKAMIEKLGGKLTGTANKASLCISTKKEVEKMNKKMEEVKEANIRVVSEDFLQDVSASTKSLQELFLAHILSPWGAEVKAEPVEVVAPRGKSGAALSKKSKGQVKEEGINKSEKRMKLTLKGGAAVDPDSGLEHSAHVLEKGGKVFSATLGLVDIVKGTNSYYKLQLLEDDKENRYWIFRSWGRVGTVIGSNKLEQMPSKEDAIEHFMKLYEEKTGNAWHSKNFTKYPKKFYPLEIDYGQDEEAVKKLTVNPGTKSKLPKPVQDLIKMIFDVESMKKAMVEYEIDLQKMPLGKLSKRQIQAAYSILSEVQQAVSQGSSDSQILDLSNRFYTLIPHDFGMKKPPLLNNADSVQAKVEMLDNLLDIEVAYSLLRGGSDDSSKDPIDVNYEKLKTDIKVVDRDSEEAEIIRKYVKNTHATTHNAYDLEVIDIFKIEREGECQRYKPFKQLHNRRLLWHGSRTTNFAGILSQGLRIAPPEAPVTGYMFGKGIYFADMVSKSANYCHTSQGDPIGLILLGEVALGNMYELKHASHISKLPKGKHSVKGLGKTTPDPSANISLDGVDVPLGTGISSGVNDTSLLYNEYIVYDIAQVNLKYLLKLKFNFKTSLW
- protocol_notes: PARP-1 autoparsylation assay (HTRF)
- Assay type: biochemical
- stated_conditions: His-tagged Parp-1, autoparsylation HTRF
Binned IC50; ranges: low = under 1 µM, intermediate = from 1 µM up to 6 µM, high = 6 µM and over

[
  {
    "smi": "Cc1csc2c(=O)[nH]c(CCCC(=O)N3CCC(C(=O)c4ccc(F)cc4)CC3)nc12",
    "category_label": "low"
  },
  {
    "smi": "N#Cc1cc(C2CCN(C(=O)CCCc3nn4cc(F)cc4c(=O)[nH]3)CC2)cnc1N",
    "category_label": "high"
  },
  {
    "smi": "COc1ccc(C(=O)C2CCN(C(=O)CCCc3nc4c(C)scc4c(=O)[nH]3)CC2)cc1F",
    "category_label": "high"
  },
  {
    "smi": "Cn1ncc2c(=O)[nH]c(CCCC(=O)N3CCC(C(=O)c4ccc(F)cc4)CC3)nc21",
    "category_label": "high"
  },
  {
    "smi": "Cc1ccc(C(=O)C2CCN(C(=O)CCCc3nn4cccc4c(=O)[nH]3)CC2)cc1",
    "category_label": "intermediate"
  },
  {
    "smi": "Cc1ccc2c(=O)[nH]c(CCCC(=O)N3CCC(c4cnc(N)c(C#N)c4)CC3)nn12",
    "category_label": "low"
  },
  {
    "smi": "COc1ccc(C(=O)C2CCN(C(=O)CCCc3nn4cc(F)cc4c(=O)[nH]3)CC2)cn1",
    "category_label": "intermediate"
  },
  {
    "smi": "Cc1cc2c(=O)[nH]c(CCCC(=O)N3CCC(C(=O)c4ccc(C(C)(C)O)cc4)CC3)nn2c1",
    "category_label": "intermediate"
  },
  {
    "smi": "Cn1cc(C(=O)C2CCN(C(=O)CCCc3cn4cc(F)cc4c(=O)[nH]3)CC2)cn1",
    "category_label": "intermediate"
  },
  {
    "smi": "Cc1cc2c(=O)[nH]c(CCCC(=O)N3CCC(C(=O)c4cnn(C(C)C)c4)CC3)cn2n1",
    "category_label": "high"
  }
]

Reference source: patent US9809598B2
